Hi there, I'd appreciate the recorded IC50 for every entry that follows.
target: human TLR2 (Homo sapiens (Human)); experiment: HEK-Blue hTLR2 antagonism assay (SEAP reporter), agonist Pam2CSK4; assay type: cell-based; conditions: HEK-Blue hTLR2 cells; Pam2CSK4 (TLR2/6 agonist) at approx. 3×EC50; 18 h; 8-point dilutions
Sequence (O60603 21-784): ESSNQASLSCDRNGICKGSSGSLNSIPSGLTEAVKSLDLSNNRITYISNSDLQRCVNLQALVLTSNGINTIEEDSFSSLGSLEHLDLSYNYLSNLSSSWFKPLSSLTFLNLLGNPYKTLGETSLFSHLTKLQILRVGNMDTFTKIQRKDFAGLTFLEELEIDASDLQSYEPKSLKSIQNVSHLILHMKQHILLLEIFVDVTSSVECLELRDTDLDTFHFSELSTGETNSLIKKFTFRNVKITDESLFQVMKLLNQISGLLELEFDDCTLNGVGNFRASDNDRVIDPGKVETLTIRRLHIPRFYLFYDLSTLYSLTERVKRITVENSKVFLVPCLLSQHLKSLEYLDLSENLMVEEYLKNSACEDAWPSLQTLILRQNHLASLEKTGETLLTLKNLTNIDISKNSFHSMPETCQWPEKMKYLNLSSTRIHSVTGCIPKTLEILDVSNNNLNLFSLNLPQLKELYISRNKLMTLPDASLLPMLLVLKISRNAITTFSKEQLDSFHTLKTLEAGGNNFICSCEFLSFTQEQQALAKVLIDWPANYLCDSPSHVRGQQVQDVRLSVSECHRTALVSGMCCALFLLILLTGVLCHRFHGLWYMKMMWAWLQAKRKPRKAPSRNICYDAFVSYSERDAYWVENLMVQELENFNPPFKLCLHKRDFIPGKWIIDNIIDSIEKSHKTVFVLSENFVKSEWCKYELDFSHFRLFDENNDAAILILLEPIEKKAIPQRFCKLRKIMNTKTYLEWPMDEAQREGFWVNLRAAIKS

Here is how some molecules turned out for IC50.
| MOLECULE | IC50 |
| --- | --- |
| O=Cc1cc(C(=O)NCCc2ccc(N3CCCC3)cc2)cc(F)c1O | 17 µM |
| O=Cc1cc(NC(=O)c2ncc(-c3ccccc3)s2)cc(F)c1O | 1.6 µM |
| O=Cc1cc(C(=O)N2CCC(c3ccc(N4CCCC4)cc3)CC2)cc(F)c1O | 0.9 µM |
| O=Cc1cc(C(=O)N2CCOC(c3ccc(N4CCCC4)cc3)C2)cc(F)c1O (racemic) | 4.7 µM |
| O=Cc1cc(COC(=O)Nc2cccc(N3CCCC3)c2)cc(F)c1O | 9.29 µM |
| O=Cc1cc(C(=O)N2CCC(c3ccc(N4CCCC4)nc3)CC2)cc(F)c1O | 6.2 µM |
| O=Cc1cc(C(=O)Nc2cnc(N3CCCCC3)s2)cc(F)c1O | > 100 µM |
| CN(C(=O)c1cc(F)c(O)c(C=O)c1)C12CC(c3ccccc3)(C1)C2 | 5.9 µM |

Batch request: IC50 for each of the following molecules.
1. O=Cc1cc(C(=O)N2CCN(c3ccc(N4CCCC4)nc3)CC2)cc(F)c1O
2. O=Cc1cc(-c2nc(-c3ccc(N4CC(F)(F)C4)cc3)ns2)cc(F)c1O
3. O=Cc1cc(C(=O)Nc2nc(-c3ccccc3)cs2)cc(F)c1O
4. O=Cc1cc(-c2cnn(-c3ccc(C(F)(F)F)cc3)c2)cc(F)c1O
5. COCCN1C(=O)Oc2c(F)cc(-c3nc(-c4ccc(N5CCCC5)cc4)ns3)cc2C1O (stereo not drawn)
6. COc1cc(-c2cnn(-c3ccc(C(F)(F)F)cc3)c2)cc(C=O)c1O
7. O=Cc1cc(-c2cnc(-c3ccc(N4CCCC4)nc3)s2)ncc1O

1: 14 µM; 2: 2.5 µM; 3: 5.1 µM; 4: 0.5 µM; 5: 0.8 µM; 6: 0.7 µM; 7: 0.7 µM

Batch request: IC50 for each of the following molecules.
1. O=Cc1cc(C(=O)Nc2nnc(N3CCCCC3)s2)cc(F)c1O
2. COc1ccc(C2CN(C(=O)c3cc(F)c(O)c(C=O)c3)CCS2)cc1 (racemic)
3. C[n+]1ccccc1Oc1c(F)cc(-c2nc(-c3ccc(N4CCCC4)cc3)ns2)cc1C=O

45.8 µM
14.2 µM
1.6 µM

Data origin, for the record: patent US20240043395A1
